Data origin: ChEMBL document CHEMBL4811258

# protocolNotes: Plasma clearance in Sprague-Dawley rat at […], iv measured up to 24 hrs
# Type: ADME, organism-based
# assayConditions: dose 2.8 mg/kg
readoutLabel: clearance at 24 h (mL/min/kg)

> print(dat)
                                   compound      units  valueobserved
1  Cc1c(Cc2ccc(C(F)(F)F)nc2)c[nH]c1C(=O)NC(C)c1cnn(C)c1 (stereo in doubt; form 1)  mL/min/kg            2.4

###

# protocolNotes: in vivo
# assayConditions: Swiss, mouse, po
readoutLabel: Tmax at 24 h (h)

> print(dat)
                                   molecule  units  valueobserved
1  Cc1c(C2(c3ccc(C(F)(F)F)nc3)CC2)c[nH]c1C(=O)NC(C)c1nc[nH]n1 (stereo in doubt; form 1)      h              4

###

# protocolNotes: Apparent half life in Sprague-Dawley rat at 19 mg/kg, po measured up to 24 hrs
# Type: ADME, organism-based
# assayConditions: in vivo, read-out: t1/2(app) (converted)
readoutLabel: half-life (h)

> print(dat)
                                 smilesrepr  valueobserved
1  Cc1cc(Nc2ccc(S(F)(F)(F)(F)F)cc2)n2nc(C(F)(F)F)nc2n1             16

###

# protocolNotes: in vitro
# assayConditions: mouse, plasma
readoutLabel: fraction unbound

> print(dat)
                                 smilesrepr  valueobserved
1  Cc1cc(Nc2ccc(S(F)(F)(F)(F)F)cc2)n2nc(C(F)(F)F)nc2n1           0.03

###

# protocolNotes: in vitro
# assayConditions: human, plasma
readoutLabel: fraction unbound

> print(dat)
                                 smilesrepr  valueobserved
1  Cc1cc(Nc2ccc(S(F)(F)(F)(F)F)cc2)n2nc(C(F)(F)F)nc2n1          0.002

###

# protocolNotes: Cmax in Sprague-Dawley rat at 32 mg/kg, po measured up to 24 hrs
# Type: ADME, organism-based
# Design: route oral, dose 32 mg/kg, time <=24
# assayConditions: in vivo
readoutLabel: Cmax (µM)

> print(dat)
                                   molecule  valueobserved
1  Cc1c(Cc2ccc(C(F)(F)F)nc2)c[nH]c1C(=O)NC(C)c1cnn(C)c1 (stereo in doubt; form 1)             35

###

# protocolNotes: AUC (0 to infinity) in Sprague-Dawley rat at 17 mg/kg, po measured up to 24 hrs
# Format: ADME, organism-based
# Set-up: route oral, dose 17 mg/kg, time <=24
# assayConditions: in vivo
readoutLabel: AUC(0-inf) (µM·h)

> print(dat)
                                   compound  valueobserved
1  Cc1c(C2(c3ccc(C(F)(F)F)nc3)CC2)c[nH]c1C(=O)NC(C)c1nc[nH]n1 (stereo in doubt; form 1)            120

###

# protocolNotes: Volume of distribution at steady state in Sprague-Dawley rat at […], iv measured up to 24 hrs
# Type: ADME, organism-based
# assayConditions: in vivo, dose 2.8 mg/kg, read-out: Vdss
readoutLabel: Vd at 24 h (L/kg)

> print(dat)
                                   compound  units  valueobserved
1  Cc1c(Cc2ccc(C(F)(F)F)nc2)c[nH]c1C(=O)NC(C)c1cnn(C)c1 (stereo in doubt; form 1)   L/kg           0.87
